test: yeast display, Sf9 membrane polyspecificity reagent, FACS + sequencing; frameworks hold sequencing errors
observedProperty: polyreactivity (PSR sort gate)

# annotated cases, reported polyreactivity (PSR sort gate) shown
[[record]]
sequencerecord = "QVQLVESGGGLVQAGGSLRLSCAASGRTFGPNAMGWYRQAPGKEMELVATITYIGGSTYYADSVKGRFTISRDNAKNTVYLQMNSLKPEDTAVYYCAKRGGSYKEGDSWGQGTQVTVSS"
observedproperty = "polyreactivity (PSR sort gate)"
experimentalresult = "low polyreactivity"

[[record]]
sequencerecord = "QVQLQESGGGLGQAGRSLRHSFAASGNIFDAGIMGWYRQAPGEERELVACITDGGSTNYADSVKRRFTISRDNAKNTVYLQMNSQKPEDTAVYYCAASWDTIGLFAYWGQGTQVTVSS"
observedproperty = "polyreactivity (PSR sort gate)"
experimentalresult = "high polyreactivity"

[[record]]
sequencerecord = "QVQLVESGGGLVQAGGSLRLSCAASGYIFPYNAMGWYRQAPGKERELVATITWTGGSTYYADSVKGRFTISRDNAKNSVYLQMNSLKPEDTAVYYCAADLSIRYDHEYGYWGKGTQVTVSS"
observedproperty = "polyreactivity (PSR sort gate)"
experimentalresult = "low polyreactivity"

[[record]]
sequencerecord = "QVQLVESGGGLVQAGGSLRLSCAASGSTFRTYAMGWYRQAPGKERELVADITWRGGSTYYADSVKGRFTISRDNAKNTVYLQMNSLKPEDTAVYYCATDRGPEVVLYDYWGQGTQVTVSS"
observedproperty = "polyreactivity (PSR sort gate)"
experimentalresult = "low polyreactivity"

[[record]]
sequencerecord = "QVQLVESGGGLVQAGGSLRLSCAASGSIFRYNAMGWYRQAPGTEREVVAGITSGGDTNYADSVKGRFTISRDNAKNTVYLQMNSLKPEDTAVYYCAKRWYGGRRYDYWGQGTQVTVSS"
observedproperty = "polyreactivity (PSR sort gate)"
experimentalresult = "low polyreactivity"


Incoming: Fill in: polyreactivity (PSR sort gate) of QVQLVESGGGLVQAGGSLRLSCAASGFIFGYNGMGWYRQAPGKERELVAYADSVKGRFTISRDNAKNTVYLQMNSLKPEDTAVYFCAADRGYVWRYDYWGQGTQVTVSS is ___
Outgoing: low polyreactivity

Incoming: Fill in: polyreactivity (PSR sort gate) of QVQHVESGGGLVQAGGSLRLTCAATGFTFEKNAMGWYRQAPGKERELVAAISRGGSTYADSVKGRFTISRDNAKNTVYLQMNSLKPEDTAVYYCAADTVYIFSSAINGEFVFWGQGTQVTVSS is ___
Outgoing: low polyreactivity

Incoming: Fill in: polyreactivity (PSR sort gate) of QVQLVESGGGLVQAGGSLRLSCAASGRTFGYYALGWYRQAPGKERELVAAISSNTDSTYYADSVKGRFTISRDNEKNTVYLQMNSLKPEDTAVYYCAAEAYSYYPGTYEDDYWGQGTQVTVSS is ___
Outgoing: low polyreactivity

Incoming: Fill in: polyreactivity (PSR sort gate) of QDQLVESGGGIVQAGGSLRLSCAASGSTIFYYAMGWYRQAPGKERELVAASSQRGGSTRYADSVKGRFTISRDNAKNTVYLQINSLKPEDSAVYYCAAARSPYKYSYWGQGTQVTVSS is ___
Outgoing: high polyreactivity

Incoming: Fill in: polyreactivity (PSR sort gate) of QVQLVESGGGLVQAGGSLRLSCAASGSTFKAYAMGWYRQAPGKERELVAAITNSDGDTYYADSVKGRFTISRDNAKNTVYLQMNSLKPEDTAVYYCIADTGKWGGNGWYEFDYWGQGTQVTVSS is ___
Outgoing: low polyreactivity

Incoming: Fill in: polyreactivity (PSR sort gate) of QVQLVESGGSLVQAGGSLRLSCAASGFIFQDNAMGWYRQAPGKERELVAAIRSTGSTNYADSVKGRFTISRDNAKNTVYLQMNSLKPEDTAVYYCNAGKYQSDTPSLVPTEYPAFYYWGQGTQVTVSS is ___
Outgoing: low polyreactivity
